# experimental_protocol: chemical genetic growth profiling, strain panel (AID 1159580);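 note: tested at 20 µM; growth read once vehicle control cultures reached saturation at 30 °C; lower values mean less growth of the strain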
# run_conditions: S. cerevisiae deletion strains, growth OD, locus YER015W, strain faa2, hits give low values
The whole screen tested about 5,500 compounds, of which about 2,000 (36%) were called active. Another 18% or so got no clear call; they are omitted. The list shows a part of the results.
API: label(entry) gives T if the entry's normalized growth is strictly smaller than 1; on equality or larger values it gives F.

Solved cases below.
molecule	answer_label
CC(C)(C)C(=O)C(Oc1ccc(Cl)cc1)n1cncn1 (stereo unspecified)	T
N[C@H](CO)Cc1ccccc1	F
COc1ccc(-c2cc(=O)c3c(OC(C)=O)cc(OC(C)=O)cc3o2)cc1	T
O=C1c2c(O)ccc(O)c2C(=O)c2c(NCCNCCO)ccc(NCCNCCO)c21	T
CN(C)C(=O)Oc1cc(OC(=O)N(C)C)cc(C(O)CNC(C)(C)C)c1 (stereo unspecified)	F
O=c1c2ccccc2oc2ccccc12	T

Does the reported normalized growth of the following molecule sit strictly below 1? CC(=O)Oc1cc(-c2coc3cc(OC(C)=O)c(OC(C)=O)c(OC(C)=O)c3c2=O)cc(OC(C)=O)c1OC(C)=O
T

Please let me know if O=c1c(-c2cc(O)c(O)c(O)c2)coc2cc(O)c(O)c(O)c12 shows normalized growth below 1.
T
